Test system: Rattus norvegicus
TEST SUMMARY: Evaluated for the effects on the gastric emptying rates of phenol red semisolid meal through the stomach in rats, at a dose of 2.0 mg/Kg administered perorally.
Type: functional
ENDPOINT LABEL: GE (%)
Number in %, nothing else.

For this compound ( CCOc1cc(N(C)C)c(Cl)cc1C(=O)NCC1CN(Cc2ccccc2)CCO1.O=C(O)C(=O)O (stereo not given) ), measured GE is 51

// sample COc1cc(Cl)c(N)cc1C(=O)NCC1CN(Cc2ccccc2)CCO1 (stereo not given) , its GE was 10

Briefly, GE measured for COc1cc(N)c(Cl)cc1C(=O)OCC1CN(Cc2ccccc2)CCO1 (stereo not given) : 17

# GE of CNc1cc(OC)c(C(=O)NCC2CN(Cc3ccccc3)CCO2)cc1Cl.O=C(O)/C=C/C(=O)O (stereo not given) = 14

In plain terms, O=C(NCC1CN(Cc2ccccc2)CCO1)c1cccc2c1OCO2.O=C(O)/C=C/C(=O)O (stereo not given) has a documented GE of 30

###

Tested on: Rattus norvegicus
TEST SUMMARY: Evaluated for the effects on the gastric emptying rates of phenol red semisolid meal through the stomach in rats, at a dose of 2.0 mg/Kg administered perorally.
Format: functional
For each of the molecules below, state its GE.
// return numeric value only (unit: %, not printed)

Lookup result for O=C(NCC1CN(Cc2ccccc2)CCO1)c1ccc2c(c1)OCO2.O=C(O)/C=C/C(=O)O (stereo not given) ; measured GE: 34

response.value for CCN(CC)c1cc(OC)c(C(=O)NCC2CN(Cc3ccccc3)CCO2)cc1Cl.O=C(O)C(=O)O (stereo not given) (field: GE) = 21

GE reported for this molecule CCOc1cc(N)c(Cl)cc1C(=O)NCCCC1CN(Cc2ccccc2)CCO1 (stereo not given) : 18

// sample Nc1cc(O)c(C(=O)NCC2CN(Cc3ccccc3)CCO2)cc1Cl.O (stereo not given) , its GE was 36

Form: molecule = CCOc1ccc(S(N)(=O)=O)cc1C(=O)NCC1CN(Cc2ccccc2)CCO1 (stereo not given) ; GE = 19

Entry COc1cc(N)c(Cl)cc1C(=O)NCC1CN(Cc2ccccc2)CCO1.Cl (stereo not given) , GE reported as 39

Please fill in: GE reported for COc1ccc(S(N)(=O)=O)cc1C(=O)NCC1CN(Cc2ccccc2)CCO1 (stereo not given) = 24

Input COc1ccc(Cl)cc1C(=O)NCC1CN(Cc2ccccc2)CCO1.Cl (stereo not given) . Output GE: 19

For COc1cc(N)c(Cl)cc1C(=O)NCCCC1CN(Cc2ccccc2)CCO1.O=C(O)C(=O)O (stereo not given) the molecule record lists GE as 23

Consider NS(=O)(=O)c1ccc(Cl)c(C(=O)NCC2CN(Cc3ccccc3)CCO2)c1 (stereo not given) . Its measured GE is 18
